Reference source for all entries: PubChem BioAssay AID1963830

Each entry below lists one item and its recorded IC50 value.
# Tested on: 922993-354-T-J3-PDC complex spheroid viability
# assay_overview: Anticancer human tumor 922993-354-T-J3-PDC patient-derived endometrial carcinoma cell line growth inhibition [POLQ]
# condition_notes: curve of first compound; second compound 3.16 µM

Below are worked cases with known answers.
{"molecule": "CCc1cc2c(N3CCc4c(cc(Cn5ccnc5)cc4-c4cn(C)nc4C(F)(F)F)C3=O)ccnc2c(OC)n1 + Nc1ccc(C#CCN(C(=O)Cc2ncc(C(F)(F)F)cc2C(F)(F)F)c2ccc(F)cc2)nn1", "IC50": "> 10 µM"}
{"molecule": "CC(=O)O[C@H]1C(=O)[C@@]2(C)[C@H]([C@H](OC(=O)c3ccccc3)[C@]3(O)C[C@H](OC(=O)[C@H](O)[C@@H](NC(=O)c4ccccc4)c4ccccc4)C(C)=C1C3(C)C)[C@]1(OC(C)=O)CO[C@@H]1C[C@@H]2O + Nc1ccc(C#CCN(C(=O)Cc2ncc(C(F)(F)F)cc2C(F)(F)F)c2ccc(F)cc2)nn1", "IC50": "> 3 µM"}
{"molecule": "CCc1cc2c(N3CCc4c(cc(Cn5ccnc5)cc4-c4cn(C)nc4C(F)(F)F)C3=O)ccnc2c(OC)n1 + COC1C(OC(N)=O)C(O)C(Oc2ccc3c(O)c(NC(=O)c4ccc(O)c(CC=C(C)C)c4)c(=O)oc3c2C)OC1(C)C", "IC50": "> 10 µM"}

What value of measured IC50 is listed for C=CC(=O)N1CCN(c2nc(=O)n(-c3c(C)ccnc3C(C)C)c3nc(-c4c(O)cccc4F)c(F)cc23)C(C)C1 (centres undefined) + COC1C(OC(N)=O)C(O)C(Oc2ccc3c(O)c(NC(=O)c4ccc(O)c(CC=C(C)C)c4)c(=O)oc3c2C)OC1(C)C ? > 10 µM

###

# System: 922993-354-T-J3-PDC complex spheroid viability
# assay_overview: Anticancer human tumor 922993-354-T-J3-PDC cell line growth inhibition [POLQ];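 further: spheroids exposed to the agents for one week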;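 on viability, T/C: 100% = DMSO vehicle control wells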
# condition_notes: second compound 3.16 µM; first compound 1 µM; stronger effect = lower value
Lab note: anything with viability, T/C below 90% is marked satisfied; values at 90% or higher are marked not satisfied.

// known answers, use as guide
{"compound": "CCc1cc2c(N3CCc4c(cc(Cn5ccnc5)cc4-c4cn(C)nc4C(F)(F)F)C3=O)cc(C)nc2c(OC)n1 + Nc1ccc(C#CCN(C(=O)Cc2ncc(C(F)(F)F)cc2C(F)(F)F)c2ccc(F)cc2)nn1", "label": "not satisfied"}
{"compound": "CCc1c2c(nc3ccc(O)cc13)-c1cc3c(c(=O)n1C2)COC(=O)[C@]3(O)CC + COC1C(OC(N)=O)C(O)C(Oc2ccc3c(O)c(NC(=O)c4ccc(O)c(CC=C(C)C)c4)c(=O)oc3c2C)OC1(C)C", "label": "satisfied"}
{"compound": "CC(C)n1c(=O)n(C)c2cnc3cc(F)c(-c4ccc(OCCCN5CCCCC5)nc4)cc3c21 + COC1C(OC(N)=O)C(O)C(Oc2ccc3c(O)c(NC(=O)c4ccc(O)c(CC=C(C)C)c4)c(=O)oc3c2C)OC1(C)C", "label": "satisfied"}
{"compound": "COc1cccc2c1C(=O)c1c(O)c3c(c(O)c1C2=O)CC(O)(C(=O)CO)CC3OC1CC(N)C(O)C(C)O1 (stereo not given) + Cc1cccc(N(C)C(=O)C2C(O)CCN2c2nc(C)cc(C(F)(F)F)c2C#N)c1", "label": "satisfied"}

Here's an entry: CC1COCCN1c1cc(C2(S(C)(=N)=O)CC2)nc(-c2ccnc3[nH]ccc23)n1 (stereo not given) + Cc1cccc(N(C)C(=O)C2C(O)CCN2c2nc(C)cc(C(F)(F)F)c2C#N)c1 . Is its viability, T/C below 90%? not satisfied

###

The molecules listed here are annotated with their viability, T/C.
# Test system: 922993-354-T-J3-PDC complex spheroid viability
# assay_overview: Anticancer human tumor 922993-354-T-J3-PDC cell line growth inhibition [POLQ];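 further: spheroids exposed to the agents for one week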;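 on viability, T/C: 100% = DMSO vehicle control wells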
# condition_notes: second compound 10 µM; first compound 10 µM; stronger effect = lower value
Report the value in % with no unit label.

Solved entries:
{"molecule": "CC(C)n1c(=O)n(C)c2cnc3cc(F)c(-c4ccc(OCCCN5CCCCC5)nc4)cc3c21 + Nc1ccc(C#CCN(C(=O)Cc2ncc(C(F)(F)F)cc2C(F)(F)F)c2ccc(F)cc2)nn1", "observed": 82.1}
{"molecule": "CCc1cc2c(N3CCc4c(cc(Cn5ccnc5)cc4-c4cn(C)nc4C(F)(F)F)C3=O)cc(C)nc2c(OC)n1 + COC1C(OC(N)=O)C(O)C(Oc2ccc3c(O)c(NC(=O)c4ccc(O)c(CC=C(C)C)c4)c(=O)oc3c2C)OC1(C)C", "observed": 74.3}
{"molecule": "C#Cc1c(F)ccc2cc(O)cc(-c3ncc4c(N5CC6CCC(C5)N6)nc(OCC56CCCN5CC(F)C6)nc4c3F)c12 (centres undefined) + Nc1ccc(C#CCN(C(=O)Cc2ncc(C(F)(F)F)cc2C(F)(F)F)c2ccc(F)cc2)nn1", "observed": 92.5}

// next entry
Can you look up the measured viability, T/C of CNCc1ccc(-c2[nH]c3cc(F)cc4c3c2CCNC4=O)cc1 + Cc1cccc(N(C)C(=O)C2C(O)CCN2c2nc(C)cc(C(F)(F)F)c2C#N)c1 for me? 44.1

###

# Test system: 922993-354-T-J3-PDC complex spheroid viability
# assay_overview: Anticancer human tumor 922993-354-T-J3-PDC cell line growth inhibition [POLQ];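 further: spheroids exposed to the agents for one week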
# condition_notes: curve of first compound; second compound 0.316 µM
pIC50: −log10 of the molar value.
measured_property: pIC50

Solved cases below.
{"compound": "CNCc1ccc(-c2[nH]c3cc(F)cc4c3c2CCNC4=O)cc1 + Nc1ccc(C#CCN(C(=O)Cc2ncc(C(F)(F)F)cc2C(F)(F)F)c2ccc(F)cc2)nn1", "target": "922993-354-T-J3-PDC complex spheroid viability", "measured_property": "pIC50", "observed": "< 5.00"}
{"compound": "CCc1cc2c(N3CCc4c(cc(Cn5ccnc5)cc4-c4cn(C)nc4C(F)(F)F)C3=O)cc(C)nc2c(OC)n1 + Nc1ccc(C#CCN(C(=O)Cc2ncc(C(F)(F)F)cc2C(F)(F)F)c2ccc(F)cc2)nn1", "target": "922993-354-T-J3-PDC complex spheroid viability", "measured_property": "pIC50", "observed": "< 5.00"}

Turning now to a further record.
Recorded pIC50 for CC[C@@]1(O)C(=O)OCc2c1cc1n(c2=O)Cc2cc3c(CN(C)C)c(O)ccc3nc2-1 + Cc1cccc(N(C)C(=O)C2C(O)CCN2c2nc(C)cc(C(F)(F)F)c2C#N)c1 , please? < 7.00

###

# Test system: 922993-354-T-J3-PDC complex spheroid viability
# assay_overview: Anticancer human tumor 922993-354-T-J3-PDC cell line growth inhibition [POLQ];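 further: spheroids exposed to the agents for one week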;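 on viability, T/C: 100% = DMSO vehicle control wells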
# condition_notes: second compound 0.1 µM; first compound 1 µM; stronger effect = lower value
viability, T/C vs 90%: less than gives 1 (yes); not less than gives 0 (no).

{"compound": "CCCS(=O)(=O)Nc1ccc(F)c(C(=O)c2c[nH]c3ncc(-c4ccc(Cl)cc4)cc23)c1F + Cc1cccc(N(C)C(=O)C2C(O)CCN2c2nc(C)cc(C(F)(F)F)c2C#N)c1", "label": "0 (no)"}
{"compound": "C=CC(=O)N1CCN(c2nc(=O)n(-c3c(C)ccnc3C(C)C)c3nc(-c4c(O)cccc4F)c(F)cc23)C(C)C1 (configuration not stated) + Nc1ccc(C#CCN(C(=O)Cc2ncc(C(F)(F)F)cc2C(F)(F)F)c2ccc(F)cc2)nn1", "label": "0 (no)"}
{"compound": "CCc1cc2c(N3CCc4c(cc(Cn5ccnc5)cc4-c4cn(C)nc4C(F)(F)F)C3=O)cc(C)nc2c(OC)n1 + Cc1cccc(N(C)C(=O)C2C(O)CCN2c2nc(C)cc(C(F)(F)F)c2C#N)c1", "label": "0 (no)"}
{"compound": "COc1cccc2c1C(=O)c1c(O)c3c(c(O)c1C2=O)CC(O)(C(=O)CO)CC3OC1CC(N)C(O)C(C)O1 (configuration not stated) + Cc1cccc(N(C)C(=O)C2C(O)CCN2c2nc(C)cc(C(F)(F)F)c2C#N)c1", "label": "1 (yes)"}
{"compound": "COc1cccc(OCCCN)c1-c1cc(Nc2cnc(C#N)cn2)n[nH]1 + Nc1ccc(C#CCN(C(=O)Cc2ncc(C(F)(F)F)cc2C(F)(F)F)c2ccc(F)cc2)nn1", "label": "1 (yes)"}

A record lists CC1COCCN1c1cc(-c2ccnn2C)c2ccnc(-c3ccn[nH]3)c2n1 (configuration not stated) + Cc1cccc(N(C)C(=O)C2C(O)CCN2c2nc(C)cc(C(F)(F)F)c2C#N)c1 . Is its viability, T/C below 90%? 1 (yes)

Item O=C(c1cc(Cc2n[nH]c(=O)c3ccccc23)ccc1F)N1CCN(C(=O)C2CC2)CC1 + COC1C(OC(N)=O)C(O)C(Oc2ccc3c(O)c(NC(=O)c4ccc(O)c(CC=C(C)C)c4)c(=O)oc3c2C)OC1(C)C : viability, T/C beneath 90%, strictly? 0 (no)

Record CCc1cc2c(N3CCc4c(cc(Cn5ccnc5)cc4-c4cn(C)nc4C(F)(F)F)C3=O)cc(C)nc2c(OC)n1 + Nc1ccc(C#CCN(C(=O)Cc2ncc(C(F)(F)F)cc2C(F)(F)F)c2ccc(F)cc2)nn1 : is its viability, T/C strictly below 90%? 0 (no)

Dear colleague, could you confirm whether viability, T/C of CCCS(=O)(=O)Nc1ccc(F)c(C(=O)c2c[nH]c3ncc(-c4ccc(Cl)cc4)cc23)c1F + Nc1ccc(C#CCN(C(=O)Cc2ncc(C(F)(F)F)cc2C(F)(F)F)c2ccc(F)cc2)nn1 falls below 90%? Thanks. 0 (no)

Hello, I'm reviewing records and need to know if viability, T/C of CNCc1ccc(-c2[nH]c3cc(F)cc4c3c2CCNC4=O)cc1 + Nc1ccc(C#CCN(C(=O)Cc2ncc(C(F)(F)F)cc2C(F)(F)F)c2ccc(F)cc2)nn1 is below 90%. Could you check? 0 (no)

For C#Cc1c(F)ccc2cc(O)cc(-c3ncc4c(N5CC6CCC(C5)N6)nc(OCC56CCCN5CC(F)C6)nc4c3F)c12 (configuration not stated) + Cc1cccc(N(C)C(=O)C2C(O)CCN2c2nc(C)cc(C(F)(F)F)c2C#N)c1 , is the recorded viability, T/C below the cut-off of 90%? 0 (no)

viability, T/C under 90%? Item: COc1ccc([C@@H](O)c2cc(-c3ncnc4cc(N5CCOCC5)ccc34)c(F)cc2Cl)nn1 + Cc1cccc(N(C)C(=O)C2C(O)CCN2c2nc(C)cc(C(F)(F)F)c2C#N)c1 0 (no)
